IC90 by entry:
STUDY TARGET: human sEH (Homo sapiens, UniProt P34913)
Construct: made in house; host or cells: baculovirus expression system
Sequence (P34913 whole entry): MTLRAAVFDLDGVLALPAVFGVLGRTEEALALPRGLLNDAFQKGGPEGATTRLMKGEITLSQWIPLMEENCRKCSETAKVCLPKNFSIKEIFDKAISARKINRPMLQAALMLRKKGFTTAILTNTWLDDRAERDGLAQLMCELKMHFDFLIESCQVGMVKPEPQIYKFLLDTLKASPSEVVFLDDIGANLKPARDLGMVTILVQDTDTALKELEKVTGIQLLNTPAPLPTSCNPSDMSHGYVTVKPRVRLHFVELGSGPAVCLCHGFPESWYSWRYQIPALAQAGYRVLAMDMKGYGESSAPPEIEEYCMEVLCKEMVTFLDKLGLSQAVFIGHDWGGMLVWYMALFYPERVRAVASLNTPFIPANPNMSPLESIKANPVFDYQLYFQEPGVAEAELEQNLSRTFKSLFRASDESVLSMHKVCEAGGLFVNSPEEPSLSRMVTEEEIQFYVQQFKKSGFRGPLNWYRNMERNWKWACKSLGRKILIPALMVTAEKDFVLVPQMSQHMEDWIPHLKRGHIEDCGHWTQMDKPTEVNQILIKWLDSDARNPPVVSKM
EXPERIMENT NOTES: Inhibition of recombinant human sEH, IC50 assay with 4-nitrophenyl-trans-2,3-epoxy-3-phenylpropyl carbonate as substrate
Format: biochemical
TEST SETTINGS: Table 5; 0.24 μM enzyme, 5 min preincubation, pH 7.4, 30° C.; means ± SD
Procedure: Assays were performed in triplicate. […] The curve was generated from at least three separate runs, each in triplicate, to obtain the standard deviation (SD) given in Table 1 thru Table 4.
Number in µM, nothing else.

Previously resolved entries follow.
> print(dat)
                            compound.string  attribute.measured  scale.unit  recorded.result
1  CCOC(=O)CCOC(=O)CCCNC(=O)NC12CC3CC(CC(C3)C1)C2                IC90          µM                9
2  CCOC(=O)CCCOC(=O)CCCNC(=O)NC12CC3CC(CC(C3)C1)C2                IC90          µM                5
3  CCOC(=O)CCCCCCCOC(=O)CCCNC(=O)NC12CC3CC(CC(C3)C1)C2                IC90          µM             0.72

# input Please give the measured IC90 for this compound: CCOC(=O)CCCCOC(=O)CCCNC(=O)NC12CC3CC(CC(C3)C1)C2
# output 1.5

# input Need IC90 of CCOC(=O)CCCCCCOC(=O)CCCNC(=O)NC12CC3CC(CC(C3)C1)C2 , thanks.
# output 0.81

# input Would you kindly share the measured IC90 for CCOC(=O)COC(=O)CCCNC(=O)NC12CC3CC(CC(C3)C1)C2 ?
# output 9

# input Sample CCOC(=O)CCCCCCCCCCOC(=O)CCCNC(=O)NC12CC3CC(CC(C3)C1)C2 — what was its IC90?
# output 1.2

Sourced from patent US20050164951A1
